Listing of recorded CC50 by entry.
- Tested on: MT2
- Test description: Cytotoxicity against human MT2 cells after 4 days by XTT assay
- Assay type: cell-based
- Test parameters: mt2, 96 h
Field format: number, assumed µM, no unit text.

Consider the reported CC50 for these compounds:
Structure notation	Units of measure	Test result
Cc1cc(C#CC(C)(C)O)cc(C)c1Oc1ccc([N+](=O)[O-])c(Nc2ccc(C#N)cc2)n1	µM	8.91
Cc1cc(I)cc(C)c1Oc1ccc([N+](=O)[O-])c(Nc2ccc(C#N)cc2)n1	µM	148
Cc1cccc(C)c1Oc1ccc([N+](=O)[O-])c(Nc2ccc(C#N)cc2)n1	µM	110
Cc1cc(C#N)cc(C)c1Oc1ccc([N+](=O)[O-])c(Nc2ccc(C#N)cc2)n1	µM	50.1
Cc1cc(C#CC(C)(C)O)cc(C)c1Oc1ccc(N)c(Nc2ccc(C#N)cc2)n1	µM	3.54

Ask: Return reported CC50; argument: "Cc1cc(C#N)cc(C)c1Oc1ccc(N)c(Nc2ccc(C#N)cc2)n1"
Reply: 31.8

Ask: Same question, "Cc1cc(CO)cc(C)c1Oc1ccc([N+](=O)[O-])c(Nc2ccc(C#N)cc2)n1" this time
Reply: 116

Ask: Repeat with "Cc1cc(I)cc(C)c1Oc1ccc(N)c(Nc2ccc(C#N)cc2)n1"
Reply: 23.5

Ask: Another compound to look at: "C#Cc1cc(C)c(Oc2ccc([N+](=O)[O-])c(Nc3ccc(C#N)cc3)n2)c(C)c1"
Reply: 174

Ask: And "Cc1cccc(C)c1Oc1ccc(N)c(Nc2ccc(C#N)cc2)n1" ?
Reply: 29.9

====

- Test description: Selectivity index, ratio of CC50 for human MT2 cells to EC50 for HIV1 3B
- Assay type: toxicity, cell-based
- Test parameters: read-out: Ratio CC50/EC50
Form field: selectivity ratio (one value per entry).
Please give only the number in your answer, with no unit.

Worked examples, 2 compounds total:
Structure notation	selectivity ratio
Cc1cc(I)cc(C)c1Oc1ccc([N+](=O)[O-])c(Nc2ccc(C#N)cc2)n1	61
Cc1cc(I)cc(C)c1Oc1ccc(N)c(Nc2ccc(C#N)cc2)n1	297

Ask: Reported selectivity ratio, compound "Cc1cc(C#N)cc(C)c1Oc1ccc([N+](=O)[O-])c(Nc2ccc(C#N)cc2)n1" : ____
Reply: 371

Ask: Would you mind doing "Cc1cc(CO)cc(C)c1Oc1ccc(N)c(Nc2ccc(C#N)cc2)n1" as well?
Reply: 391

Ask: Also "C#Cc1cc(C)c(Oc2ccc(N)c(Nc3ccc(C#N)cc3)n2)c(C)c1" , if possible.
Reply: 20

Ask: For "Cc1cccc(C)c1Oc1ccc(N)c(Nc2ccc(C#N)cc2)n1" then?
Reply: 52

Ask: Moving on to the next compound: "C#Cc1cc(C)c(Oc2ccc([N+](=O)[O-])c(Nc3ccc(C#N)cc3)n2)c(C)c1"
Reply: 256

Ask: Check "Cc1cc(C)c(Oc2ccc([N+](=O)[O-])c(Nc3ccc(C#N)cc3)n2)c(C)c1" too.
Reply: 4260

Ask: Try this compound too: "Cc1cccc(C)c1Oc1ccc([N+](=O)[O-])c(Nc2ccc(C#N)cc2)n1"
Reply: 107

Ask: // query: "Cc1cc(C)c(Oc2ccc(N)c(Nc3ccc(C#N)cc3)n2)c(C)c1"
Reply: 182

Ask: Moving on to "Cc1cc(C#CC(C)(C)O)cc(C)c1Oc1ccc(N)c(Nc2ccc(C#N)cc2)n1"
Reply: 2

Ask: Same question for "Cc1cc(CO)cc(C)c1Oc1ccc([N+](=O)[O-])c(Nc2ccc(C#N)cc2)n1" please.
Reply: 603

Ask: Check "Cc1cc(C#N)cc(C)c1Oc1ccc(N)c(Nc2ccc(C#N)cc2)n1" too.
Reply: 22700

====

Recorded selectivity ratio by entry
- Test description: Selectivity index, ratio of CC50 for human TZM-bl cells to EC50 for HIV1 NL4-3
- Assay type: toxicity, cell-based
- Test parameters: read-out: Ratio CC50/EC50
Number, no unit, nothing else.

Record excerpt, results attached:
Structure notation	Measured metric	Test result
Cc1cccc(C)c1Oc1ccc(N)c(Nc2ccc(C#N)cc2)n1	selectivity ratio	2020
Cc1cc(C)c(Oc2ccc(N)c(Nc3ccc(C#N)cc3)n2)c(C)c1	selectivity ratio	11200
Cc1cc(C#N)cc(C)c1Oc1ccc(N)c(Nc2ccc(C#N)cc2)n1	selectivity ratio	13200
C#Cc1cc(C)c(Oc2ccc(N)c(Nc3ccc(C#N)cc3)n2)c(C)c1	selectivity ratio	1480
Cc1cc(CO)cc(C)c1Oc1ccc(N)c(Nc2ccc(C#N)cc2)n1	selectivity ratio	857

From here, focus on the item given below.
Ask: Returns the measured selectivity ratio for the input compound. Input: "Cc1cc(C#CC(C)(C)O)cc(C)c1Oc1ccc(N)c(Nc2ccc(C#N)cc2)n1"
Reply: 36

====

- Test system: MT2
- Test description: Cytotoxicity against human MT2 cells after 4 days by XTT assay
- Type: cell-based
- Test parameters: mt2, 96 h
Measured metric: CC50
Form field: result (number plus unit)

Ask: GET /values?readout=CC50&system=MT2&item= "Cc1cc(CO)cc(C)c1Oc1ccc(N)c(Nc2ccc(C#N)cc2)n1"
Reply: 2.19 µM

Ask: Now try "Cc1cc(C)c(Oc2ccc([N+](=O)[O-])c(Nc3ccc(C#N)cc3)n2)c(C)c1" .
Reply: 503 µM

Ask: And for "Cc1cc(C)c(Oc2ccc(N)c(Nc3ccc(C#N)cc3)n2)c(C)c1" ?
Reply: 10.6 µM

Ask: Follow-up entry: "C#Cc1cc(C)c(Oc2ccc(N)c(Nc3ccc(C#N)cc3)n2)c(C)c1"
Reply: 8.25 µM

====

- Test description: Selectivity index, ratio of CC50 for human TZM-bl cells to EC50 for HIV1 NL4-3
- Type: toxicity, cell-based
- Test parameters: read-out: Ratio CC50/EC50
Measured selectivity ratio, listed per entry.

Take a look at these entries with their results.
Structure notation	Test result
Cc1cc(C)c(Oc2ccc([N+](=O)[O-])c(Nc3ccc(C#N)cc3)n2)c(C)c1	> 2340
Cc1cc(I)cc(C)c1Oc1ccc(N)c(Nc2ccc(C#N)cc2)n1	2200
Cc1cc(CO)cc(C)c1Oc1ccc([N+](=O)[O-])c(Nc2ccc(C#N)cc2)n1	> 108
Cc1cc(I)cc(C)c1Oc1ccc([N+](=O)[O-])c(Nc2ccc(C#N)cc2)n1	> 675

Consider the additional compound presented here.
Ask: Item under review: "Cc1cc(C#N)cc(C)c1Oc1ccc([N+](=O)[O-])c(Nc2ccc(C#N)cc2)n1" . Reported selectivity ratio?
Reply: > 2350

====

- Test description: Selectivity index, ratio of CC50 for human MT4 cells to EC50 for HIV1 3B
Measured metric: selectivity ratio
Just the number, please.

Ask: Can you share its selectivity ratio? I mean this molecule: Cc1cc(C#N)cc(C)c1Oc1nc(Nc2ccc(C#N)cc2)nc(N)c1Br [ETRAVIRINE]
Reply: 63100

====

- Test description: Selectivity index, ratio of CC50 for human TZM-bl cells to EC50 for HIV1 RTMDR1
- Type: toxicity, cell-based
- Test parameters: read-out: Ratio CC50/EC50
Measured metric: selectivity ratio
# output: bare number, no unit

Structure notation	Test result
Cc1cc(C)c(Oc2ccc(N)c(Nc3ccc(C#N)cc3)n2)c(C)c1	15500
Cc1cc(I)cc(C)c1Oc1ccc(N)c(Nc2ccc(C#N)cc2)n1	3260
Cc1cc(CO)cc(C)c1Oc1ccc(N)c(Nc2ccc(C#N)cc2)n1	372

Ask: Suppose we examine the compound "C#Cc1cc(C)c(Oc2ccc(N)c(Nc3ccc(C#N)cc3)n2)c(C)c1" ; what selectivity ratio value has been reported?
Reply: 1100

Ask: Note, next up: "Cc1cccc(C)c1Oc1ccc(N)c(Nc2ccc(C#N)cc2)n1"
Reply: 2150

Ask: Moving on to "Cc1cc(C#CC(C)(C)O)cc(C)c1Oc1ccc(N)c(Nc2ccc(C#N)cc2)n1"
Reply: 16

Ask: Cool, now "Cc1cc(C#N)cc(C)c1Oc1ccc(N)c(Nc2ccc(C#N)cc2)n1"
Reply: 9350

====

- Test description: Cytotoxicity against human TZM-bl cells
- Type: cell-based
Measured metric: CC50

Compound	CC50
Cc1cc(C#CC(C)(C)O)cc(C)c1Oc1ccc([N+](=O)[O-])c(Nc2ccc(C#N)cc2)n1	> 45.2 µM
Cc1cc(C)c(Nc2ccnc(Nc3ccc(C#N)cc3)n2)c(C)c1 [DAPIVIRINE]	> 0.304 µM
Cc1cc(C#N)cc(C)c1Oc1ccc([N+](=O)[O-])c(Nc2ccc(C#N)cc2)n1	> 52 µM

Ask: Entry under review: "C#Cc1cc(C)c(Oc2ccc([N+](=O)[O-])c(Nc3ccc(C#N)cc3)n2)c(C)c1" . Reported CC50?
Reply: > 52.1 µM

Ask: Also need "Cc1cc(CO)cc(C)c1Oc1ccc([N+](=O)[O-])c(Nc2ccc(C#N)cc2)n1" , thanks.
Reply: > 51.3 µM

Ask: Then what about the compound "Cc1cccc(C)c1Oc1ccc([N+](=O)[O-])c(Nc2ccc(C#N)cc2)n1" ?
Reply: > 55.6 µM

Ask: Now give it for "Cc1cc(C)c(Oc2ccc([N+](=O)[O-])c(Nc3ccc(C#N)cc3)n2)c(C)c1" too.
Reply: > 53.5 µM

Ask: Similarly, "Cc1cc(I)cc(C)c1Oc1ccc([N+](=O)[O-])c(Nc2ccc(C#N)cc2)n1" ?
Reply: > 41.1 µM

All values here come from ChEMBL document CHEMBL1155964.
